Where do these numbers come from? They come from ChEMBL document CHEMBL6121036.

measurement notes: Effect on CDC42EP3 level in human MV4-11 cells assessed as fold change at 100 nM measured after 4 hrs
Type: functional
assay endpoint: fold change (FC)
Simply state the number, no unit and no words.

Asked: Identify measured fold change (FC) corresponding to Cc1sc2c(c1C)C(c1ccc(Cl)cc1)=N[C@@H](CC(=O)N1CCC(CN3CCN(c4cc5c(cc4F)C(=O)N(C4CCC(=O)NC4=O)C5=O)CC3)CC1)c1nnc(C)n1-2 (stereo partly drawn)
Given back: -1.41

Asked: Kindly indicate its recorded fold change (FC). Item: Cc1sc2c(c1C)C(c1ccc(Cl)cc1)=N[C@@H](CC(=O)N1CCC(CN3CCN(c4ccc(NC5CCC(=O)NC5=O)cc4)CC3)CC1)c1nnc(C)n1-2 (stereo partly drawn)
Given back: -1

Asked: Supply reported fold change (FC) belonging to this compound: Cc1sc2c(c1C)C(c1ccc(Cl)cc1)=N[C@@H](CC(=O)N1CCC(CN3CCN(c4ccc(C5CCC(=O)NC5=O)cc4)CC3)CC1)c1nnc(C)n1-2 (stereo partly drawn)
Given back: -1.38

Asked: Name the recorded fold change (FC) of the compound listed here: Cc1sc2c(c1C)C(c1ccc(Cl)cc1)=N[C@@H](CC(=O)N1CCC(CN3CCN(c4ccc(NC5CCC(=O)NC5=O)c(F)c4)CC3)CC1)c1nnc(C)n1-2 (stereo partly drawn)
Given back: -1.17

Asked: Please give the documented fold change (FC) of Cc1sc2c(c1C)C(c1ccc(Cl)cc1)=N[C@@H](CC(=O)N1CCC(CN3CCN(c4ccc(N5CCC(=O)NC5=O)cc4)CC3)CC1)c1nnc(C)n1-2
Given back: -1.16

Asked: Give me measured fold change (FC), please, for this compound: Cc1sc2c(c1C)C(c1ccc(Cl)cc1)=N[C@@H](CC(=O)N1CCC(CN3CCN(c4ccc5c(c4)C(=O)N(C4CCC(=O)NC4=O)C5=O)CC3)CC1)c1nnc(C)n1-2 (stereo partly drawn)
Given back: -1.24

Asked: Report fold change (FC) for Cc1sc2c(c1C)C(c1ccc(Cl)cc1)=N[C@@H](CC(=O)N1CCC(CN3CCN(c4ccc5c(c4)n(C)c(=O)n5C4CCC(=O)NC4=O)CC3)CC1)c1nnc(C)n1-2 (stereo partly drawn)
Given back: -1.05

Asked: Complete the entry with fold change (FC) for Cc1sc2c(c1C)C(c1ccc(Cl)cc1)=N[C@@H](CC(=O)N1CCC(CN3CCN(c4ccc5c(c4)CN(C4CCC(=O)NC4=O)C5=O)CC3)CC1)c1nnc(C)n1-2 (stereo partly drawn)
Given back: -1.25
